system: A498; test: NCI tumour cell line growth inhibition, 48 h
The source made the active and inactive calls. Cut-off read from the data, not from the text of the source: active = GI50 up to about 1.1 µM and inactive = higher.
Hi there, use one of these labels in your reply, thanks! active, inactive

Name the outcome recorded for CC(=O)CCn1[nH]c(=O)c(Cl)c(Cl)c1=O in the assay. inactive

Consider next the compound CC1(C23CC4CC(CC(C4)C2)C3)n2c(=O)n(-c3ccccc3)c(=O)n2C1(C)C12CC3CC(CC(C3)C1)C2 (stereo not drawn) in the same way. inactive

Consider next the compound CC1C2=C(O)CC(C)(C)CC2=NC2=C1C(=O)CC(C)(C)C2 (stereo not drawn) in the same way. inactive

Consider next the compound O=C(/C=C/c1ccccc1Cl)NC1C=Nc2ccc([N+](=O)[O-])cc2NC1 (stereo not drawn) in the same way. inactive

Consider next the compound COc1ccc2nccc(SCC(=O)O)c2c1 in the same way. inactive

Consider next the compound c1ccc(CN(Cc2ccccn2)Cn2cccn2)nc1 in the same way. inactive

Consider next the compound Nc1nc(Cl)c(N)c(NCC2(CO)CC(CCCc3ccccc3)C2)n1 (stereo not drawn) in the same way. inactive

Consider next the compound O=Cc1ccc2c(c1)CC1(C2)Cc2ccc(C=O)cc2C1 in the same way. inactive

Consider next the compound C[C@H]1CC[C@]2(NC1)O[C@H]1C[C@H]3[C@@H]4CC[C@H]5C[C@@H](O[C@@H]6O[C@H](CO)[C@H](O[C@@H]7O[C@H](CO)[C@@H](O)[C@H](O[C@@H]8OC[C@@H](O)[C@H](O)[C@H]8O)[C@H]7O[C@@H]7O[C@H](CO)[C@@H](O)[C@H](O)[C@H]7O)[C@H](O)[C@H]6O)CC[C@]5(C)[C@H]4CC[C@]3(C)[C@H]1[C@@H]2C in the same way. inactive

Consider next the compound COc1cc(-c2ccc(/N=N/c3ccc4c(S(=O)(=O)O)cc(S(=O)(=O)O)c(N)c4c3O)c(OC)c2)ccc1/N=N/c1ccc2c(S(=O)(=O)O)cc(S(=O)(=O)O)c(N)c2c1O in the same way. inactive

Consider next the compound O=c1c(Cc2ccc(Cc3c(O)oc4ccccc4c3=O)cc2)c(O)oc2ccccc12 in the same way. inactive

Consider next the compound O=c1oc2ncccc2n1Cc1ccc([N+](=O)[O-])cc1 in the same way. inactive

Consider next the compound NNC(=O)N/N=C1/C(=O)N(c2ccc(Cl)c(Cl)c2)C(=O)C(=O)C1c1nc2ccccc2o1 (stereo not drawn) in the same way. inactive

Consider next the compound C=CCOC(=O)/C(=C\c1ccc(OC)c(OC)c1)c1ccc(OC)c(OC)c1 in the same way. inactive

Consider next the compound Cc1ccc(NC(=O)C(=O)C(C(=O)c2ccc3ccccc3c2)C2OC(=O)c3ccccc32)cc1C (stereo not drawn) in the same way. inactive

Consider next the compound COc1ccc2nc3cccc([N+](=O)[O-])c3c(NCCN(C)C)c2c1 in the same way. active

Consider next the compound Cn1cc(NC(=O)c2cc(NC(=O)CCCCCCCC(=O)Nc3cc(C(=O)Nc4cc(C(=O)NCCC(=N)N)n(C)c4)n(C)c3)cn2C)cc1C(=O)NCCC(=N)N in the same way. inactive

Consider next the compound O=c1c2nn[nH]c2nc2n1CC(c1ccccc1)S2 (stereo not drawn) in the same way. inactive

Consider next the compound NS(=O)(=O)c1ccc(NC(=O)c2cccc3cc4ccccc4nc23)cc1 in the same way. inactive

Consider next the compound CC1=NC2=Nc3nc(C)cc[n+]3CN2C=C1 in the same way. inactive

Consider next the compound CC1CC[C@@]2(OC1)O[C@H]1[C@H](O)[C@H]3[C@@H]4CC[C@H]5C[C@@H](OC6OC(CO)C(OC7OC(CO)C(O)C(OC8OCC(O)C(O)C8O)C7OC7OC(CO)C(O)C(O)C7OC7OC(CO)C(O)C(O)C7O)C(O)C6O)[C@H](O)C[C@]5(C)[C@H]4CC[C@]3(C)[C@H]1[C@@H]2C (stereo partly drawn) in the same way. inactive

Consider next the compound CN1C(=O)C(O)CC1c1ccc(C(F)(F)F)cc1 (stereo not drawn) in the same way. inactive

Consider next the compound COc1ccc(C(=O)c2c(-c3ccccc3NC(=O)C(F)(F)F)[nH]c3ccccc23)cc1 in the same way. inactive

Consider next the compound O=C(O)c1c(O)c2cc(Br)ccc2oc1=O in the same way. inactive

Consider next the compound CCc1cc2c(cc1C(=O)CCC(=O)O)CC1(C2)Cc2cc(CC)c(C(=O)CCC(=O)O)cc2C1 in the same way. inactive

Consider next the compound COc1ccccc1NC(=O)CSC(N)=O in the same way. inactive

Consider next the compound CC1=CCC[C@H]2[C@](C)(CC3=CC(=O)C(SCC(C)C)=CC3=O)[C@@H](C)CC[C@]12C in the same way. inactive

Consider next the compound CCOC(=O)C(NNS(=O)(=O)c1ccc(C)cc1)S(=O)(=O)C(F)(F)C(F)(F)C(F)(F)C(F)(F)F (stereo not drawn) in the same way. inactive

Consider next the compound O=[N+]([O-])c1ccc(O)c(/C=N/c2nc(-c3ccccc3)cs2)c1 in the same way. inactive

Consider next the compound COc1cc(/C=C2/SC(c3ccccc3)N(c3cc(Cl)ccc3Cl)C2=O)cc(OC)c1OC (stereo not drawn) in the same way. inactive

Consider next the compound COc1ccccc1NC(=O)C(CC(C(=O)Nc1ccccc1OC)/C(C)=N/Nc1ccc([N+](=O)[O-])cc1[N+](=O)[O-])/C(C)=N/Nc1ccc([N+](=O)[O-])cc1[N+](=O)[O-] (stereo not drawn) in the same way. inactive

Consider next the compound Oc1ccc(Cl)cc1-c1cc(-c2ccccc2)nc(S)n1 in the same way. inactive

Consider next the compound NC(=S)N/N=C(/CC(=O)c1ccccc1)C(=O)Nc1ccc(Cl)c(Cl)c1 in the same way. inactive

====

Could you please report measured GI50 for the items listed next?
system: NCI/ADR-RES; assay: NCI tumour cell line growth inhibition, 48 h
Active and inactive are the calls of the source. Cut-off read from the data, not from the text of the source: active = GI50 up to about 1.1 µM and inactive = higher.

Quick one: GI50 of Oc1nc(-c2cccc(F)c2)nc2ccccc12 ? 45.5 µM (inactive)

Consider next the molecule Oc1ccccc1CNCc1nc2ccccc2[nH]1 in the same way. 15.9 µM (inactive)

Consider next the molecule O=C1CCC[C@H]2O[C@@H](COCc3ccccc3)C[C@@H]12 in the same way. > 100 µM (inactive)

Consider next the molecule O=P(O)(O)C=C=C1CCCCC1 in the same way. > 100 µM (inactive)

Consider next the molecule COc1cc(-c2ccc(/N=N/c3ccc4c(S(=O)(=O)O)cc(S(=O)(=O)O)c(N)c4c3O)c(OC)c2)ccc1/N=N/c1ccc2c(S(=O)(=O)O)cc(S(=O)(=O)O)c(N)c2c1O in the same way. > 100 µM (inactive)

====

system: SK-MEL-28; test: NCI tumour cell line growth inhibition, 48 h
Calls of active or inactive are those of the source. Rule as the data show it: active = GI50 up to about 1.1 µM and inactive = higher.
endpoint: GI50

Quick one: GI50 of O=C(O)[C@@H]1CCCC[C@@H]1C(=O)N(C1CCCCC1)C1CCCCC1 ? > 100 µM (inactive)

Consider next the compound O=C(CCCN1CCC2(CC1)NC(=O)c1ccccc1O2)c1ccc(F)cc1 in the same way. > 100 µM (inactive)

Consider next the compound Cc1cccc(Cl)c1NC(N)=S in the same way. 55.1 µM (inactive)

Consider next the compound C=CC1(C)/C(=N\O)C(C)(CC)C(=O)N1O (configuration not stated) in the same way. > 100 µM (inactive)

Consider next the compound CC(Oc1ccc(Oc2cnc3ccc(Cl)cc3n2)cc1)C(=O)O (configuration not stated) in the same way. > 76.7 µM (inactive)

Consider next the compound O=[N+]([O-])c1ccc(Cl)c2c([N+](=O)[O-])cccc12 in the same way. 7.93 µM (inactive)

Consider next the compound CC1=C(C)SC(=C2Sc3c(n(C)c(=O)n(C)c3=O)S2)S1 in the same way. > 100 µM (inactive)

Consider next the compound O=c1[nH]c2cc(Cl)ccc2nc1/C(=N/Nc1ccccc1)C(O)c1ccco1 (configuration not stated) in the same way. > 100 µM (inactive)

Consider next the compound NC(=S)NN=C1Cc2ccccc2C1 in the same way. > 100 µM (inactive)

Consider next the compound O=[N+]([O-])/C=C/c1cc2ccccc2[nH]1 in the same way. 25.4 µM (inactive)

Consider next the compound Nc1nccc(-c2c[nH]c3cc(Br)ccc23)n1 [MERIDIANIN D] in the same way. 30.5 µM (inactive)

Consider next the compound CCC(CCCC[C@H]1CC[C@@H]2CC(=O)C[C@H]12)OC (some centres not stated) in the same way. > 100 µM (inactive)

Consider next the compound O=C(O)c1ccc(Nc2nc3ccccc3nc2C(=O)O)cc1 in the same way. > 100 µM (inactive)

Consider next the compound Oc1ccc2ccccc2c1-c1c(Nc2ccccc2)ccc2ccccc12 in the same way. 13.9 µM (inactive)

Consider next the compound COc1cccc(NC(=O)CC(=O)N2N=C(C)C(/N=N/c3ccc(S(=O)(=O)CCOS(=O)(=O)O)cc3)C2=O)c1 (configuration not stated) in the same way. 4.09 µM (inactive)

Consider next the compound N#CN1CCC=C(c2cc3ccccc3[nH]2)C1 in the same way. 382 µM (inactive)

Consider next the compound N=C(NCc1ccccc1)N/N=C\c1ccnc2ccccc12 in the same way. 12 µM (inactive)

Consider next the compound COc1ccc2nccc(SCC(=O)O)c2c1 in the same way. > 100 µM (inactive)

Consider next the compound CC1=CCC[C@H]2[C@](C)(CC3=CC(=O)C(SCC(C)C)=CC3=O)[C@@H](C)CC[C@]12C in the same way. 15.8 µM (inactive)

Consider next the compound O=C1N2Cc3c4ccc5c3CN3C(=O)N6Cc7c(ccc(c7CN1C6(c1ccccc1)C23c1ccccc1)OCCOCCNCCOCCO4)OCCOCCNCCOCCO5 (configuration not stated) in the same way. > 100 µM (inactive)

Consider next the compound Oc1ccc(-c2nc(-c3cccnc3)c(-c3ccc(Cl)cc3)[nH]2)cc1O in the same way. 17.5 µM (inactive)

Consider next the compound [O-][s+]1c2c(Cc3ccccc3)c(Cc3ccccc3)c1CCc1cccc(c1)CC2 in the same way. 20.7 µM (inactive)
